Listed here are binders together with their documented Effective SDA Concentration at A450 0.3.
Biological target: tetanus neurotoxin (TeNT), authentic tetanus holotoxin (Clostridium tetani, UniProt P04958 2-1315)
Sequence (P04958 2-457 limits assumed, chain 1 of 2): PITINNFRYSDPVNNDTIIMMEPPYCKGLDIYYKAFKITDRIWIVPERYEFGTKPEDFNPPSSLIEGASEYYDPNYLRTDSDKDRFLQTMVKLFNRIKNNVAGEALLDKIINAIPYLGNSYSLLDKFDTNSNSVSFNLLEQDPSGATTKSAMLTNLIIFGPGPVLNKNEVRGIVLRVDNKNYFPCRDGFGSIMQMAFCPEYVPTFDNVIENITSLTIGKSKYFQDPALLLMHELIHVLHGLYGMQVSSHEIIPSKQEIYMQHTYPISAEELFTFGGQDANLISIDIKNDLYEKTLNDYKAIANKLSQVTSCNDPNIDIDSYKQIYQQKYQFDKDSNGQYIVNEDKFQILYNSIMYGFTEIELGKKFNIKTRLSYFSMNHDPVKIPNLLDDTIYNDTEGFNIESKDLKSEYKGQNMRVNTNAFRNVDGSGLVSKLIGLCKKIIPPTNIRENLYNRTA
Sequence (P04958 458-1315 limits assumed, chain 2 of 2): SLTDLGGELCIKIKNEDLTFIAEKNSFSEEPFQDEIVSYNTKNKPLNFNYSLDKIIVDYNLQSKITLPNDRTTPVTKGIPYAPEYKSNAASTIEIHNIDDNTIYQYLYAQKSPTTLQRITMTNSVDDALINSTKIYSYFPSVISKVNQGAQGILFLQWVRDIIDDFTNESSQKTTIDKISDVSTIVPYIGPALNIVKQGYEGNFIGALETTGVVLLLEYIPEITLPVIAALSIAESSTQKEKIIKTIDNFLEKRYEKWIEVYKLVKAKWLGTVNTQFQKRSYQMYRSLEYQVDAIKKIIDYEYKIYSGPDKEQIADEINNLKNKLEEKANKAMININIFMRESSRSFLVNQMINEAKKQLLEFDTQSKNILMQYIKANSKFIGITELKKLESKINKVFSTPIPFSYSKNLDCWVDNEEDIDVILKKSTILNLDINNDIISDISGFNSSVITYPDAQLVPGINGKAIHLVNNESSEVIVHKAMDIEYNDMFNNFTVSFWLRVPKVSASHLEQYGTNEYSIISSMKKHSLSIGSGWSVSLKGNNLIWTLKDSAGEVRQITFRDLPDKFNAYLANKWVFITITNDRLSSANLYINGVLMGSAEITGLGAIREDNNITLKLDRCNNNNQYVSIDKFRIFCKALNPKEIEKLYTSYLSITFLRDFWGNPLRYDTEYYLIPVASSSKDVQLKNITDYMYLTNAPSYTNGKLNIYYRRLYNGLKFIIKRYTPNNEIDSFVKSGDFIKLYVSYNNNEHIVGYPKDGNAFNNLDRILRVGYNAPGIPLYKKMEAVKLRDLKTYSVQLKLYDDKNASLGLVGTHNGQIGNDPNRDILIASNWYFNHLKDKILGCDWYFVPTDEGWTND
Assay: bridging ELISA: coated dog IgG, SDA, biotinylated TeNT, StrepPO
MEASURE_NAME: Effective SDA Concentration at A450 0.3 (ng/mL)

INSERT INTO assay_data (binder, reading_qualifier, obs_value) VALUES
  ('SVT15-3FW4M-GS2-SVG13M4-H6 (bispecific antibody) QVQLQESGGGLVQTGGSLRLSCRASGRAFANYHFGWFRQAPGKDREFVASISWKGGSTYYANFALGRFTSSVDRAESSVYLQMSGLTPEDTATYYCAAHDGGDWNYHTGMDYWGQGTQVTVSSGGGGSGGGSEVQLVESGGGLVQPGGSLRLSCEASGFTFDDYGMSWVRQAPGKGLEWVSSLTPNGGSTYYADSVKGRFTISRDNAKNTLYLQMNSLKPEDTALYYCAKNSYYGAMDYWGQGTQVTVSSHHHHHH', '=', 2.2),
  ('SVT02-GS2-SVG13M4-H6 (bispecific antibody) QVQLQQSGGGSVQAGGSLRLSCVGPQRTFSTYGMGWFRQAPGKEREFVAGINYKGDTTYYADSVKGRFTISRDNAKNTLYLQMDSLKPEDRAVYQCARKGGLGGDYRDAGQYRYWGQGTQVTVSSGGGGSGGGSEVQLVESGGGLVQPGGSLRLSCEASGFTFDDYGMSWVRQAPGKGLEWVSSLTPNGGSTYYADSVKGRFTISRDNAKNTLYLQMNSLKPEDTALYYCAKNSYYGAMDYWGQGTQVTVSSHHHHHH', '=', 9.1),
  ('SVT06-GS2-SVG13M4-H6 (bispecific antibody) QVQLQESGGGSVQAGGSLRLSCTASELSYDDYTIAWFRRAAGEGRVEDGEGVASITKSYDRAYDNKINYGHSVKGRFTISRDNAKNTVYLQMTDLLPSDTAVYYCALDITPPGGVGASLTEGFLFDYWGQGTQVTVSSGGGGSGGGSEVQLVESGGGLVQPGGSLRLSCEASGFTFDDYGMSWVRQAPGKGLEWVSSLTPNGGSTYYADSVKGRFTISRDNAKNTLYLQMNSLKPEDTALYYCAKNSYYGAMDYWGQGTQVTVSSHHHHHH', '<', 0.49),
  ('SVT15-3FW4M-GS2-SVG06M4-H6 (bispecific antibody) QVQLQESGGGLVQTGGSLRLSCRASGRAFANYHFGWFRQAPGKDREFVASISWKGGSTYYANFALGRFTSSVDRAESSVYLQMSGLTPEDTATYYCAAHDGGDWNYHTGMDYWGQGTQVTVSSGGGGSGGGSEVQLVESGGALVQPGGSLRLSCAASGFPFSAYDMTWVRQAPGQGLEWVSTIHKSGGITTYADSVKGRFTISRDNAKNTLYLQMNNLESEDTAVYYCAKALRAHNSDYVGRNALGSWGQGTQVTVSSHHHHHH', '=', 8.3);
